Target: human PPARδ (hPPARδ) (Homo sapiens)
Construct: δ: aa 139-C-end; α: aa 167-C-end; expressed in transfected cells; host or cells: CHO cells (transient transfection, FuGene)
Sequence (Q03181 139-441 limits assumed): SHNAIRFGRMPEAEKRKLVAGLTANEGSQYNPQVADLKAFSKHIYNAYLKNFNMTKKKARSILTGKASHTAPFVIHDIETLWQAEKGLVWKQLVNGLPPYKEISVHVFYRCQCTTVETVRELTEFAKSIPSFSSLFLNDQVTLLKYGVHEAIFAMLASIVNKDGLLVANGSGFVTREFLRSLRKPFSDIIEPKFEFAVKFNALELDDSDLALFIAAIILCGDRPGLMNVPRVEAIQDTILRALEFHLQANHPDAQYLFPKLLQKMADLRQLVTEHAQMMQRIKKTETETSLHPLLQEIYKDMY
Assay: Test for transcriptional activity of PPARδ (GAL4 chimeric transcription factor reporter assay in CHO cells)
Assay type: cell-based
Conditions: CHO cells transfected with GAL4-hPPARδ LBD and pG5luc reporter; 24 hours; luciferase activity; concentration showing 1/2 of maximum luciferase activity
MEASURE_NAME: EC50 (µM)

The following compounds have reported results that may help.
{"COMPOUND": "O=C(O)Cc1ccc(CN2CCCN(c3nc4ccc(Cl)cc4s3)CC2)s1", "VALUE_UNITS": "µM", "EC50": 0.91}
{"COMPOUND": "CNc1cccc(-c2cnc(N3CCN(CCOc4cc(CC(=O)O)ccc4Cl)[C@@H](C)C3)s2)c1", "VALUE_UNITS": "µM", "EC50": 0.029}
{"COMPOUND": "C[C@@H]1CN(c2ccc(C(F)(F)F)cn2)C[C@H](C)N1CCOc1cc(CC(=O)O)ccc1Cl", "VALUE_UNITS": "µM", "EC50": 0.019}

(A) COc1ccc(CC(=O)O)cc1OCC1CCN(c2nc3ccc(Cl)cc3s2)CC1
(B) C[C@@H]1CN(c2nc3ccc(Cl)cc3s2)C[C@H](C)N1CCOc1ccc(Cl)c(CC(=O)O)c1
(C) CCCC[C@@H]1CN(Cc2cc(C)cc(OCC(=O)O)c2)CCN1c1nc2ccc(OC(F)(F)F)cc2s1
(D) C[C@@H]1CN(C2(CCOc3cc(Cl)cc(CC(=O)O)c3)CCN(c3nc4ccc(Cl)cc4s3)CC2)C[C@H](C)O1
(E) C[C@H]1CN(c2nc3ccc(Cl)cc3s2)CCN1CCOc1cc(Cl)cc(CC(=O)O)c1
# input Arrange these 5 compounds in increasing order of EC50. Answer by listing the labels in the requested order.
# output C, E, A, B, D
(C: 0.0044 µM, E: 0.013 µM, A: 0.02 µM, B: 0.041 µM, D: 0.28 µM)

(a) O=C(O)Cc1cccc(OCCN(C2CCCCC2)C2CCN(c3nc4ccc(Cl)cc4s3)C2)c1 (stereo not drawn)
(b) Cc1cc(CC(=O)O)cc(CN2CCN(c3nc4ccc(C(F)(F)F)cc4s3)[C@@H](CC(C)C)C2)c1
# input Pick one: a or b . Which has the bigger EC50 number? Field: selected label. Fill in the label of the entry you choose.
# output a

(1) Cc1cc(CN2C[C@@H](C)N(c3nc4ccc(C(F)(F)F)cc4s3)[C@@H](C)C2)cc(OCC(=O)O)c1
(2) CCCCN(Cc1cccc(CC(=O)O)c1)C1CCN(c2nc3ccc(Cl)cc3s2)C1 (stereo not drawn)
# input Hi there, can you help? I need to know whether 1 or 2 has lower measured EC50. Give the label of your selection.
# output 1
(1: 0.026 µM, 2: 0.049 µM)

====

Molecular target: human PPARα (hPPARα) (Homo sapiens, UniProt Q07869)
Construct: δ: aa 139-C-end; α: aa 167-C-end; expressed in transfected cells; host or cells: CHO cells (transient transfection, FuGene)
Sequence (Q07869 167-468 limits assumed): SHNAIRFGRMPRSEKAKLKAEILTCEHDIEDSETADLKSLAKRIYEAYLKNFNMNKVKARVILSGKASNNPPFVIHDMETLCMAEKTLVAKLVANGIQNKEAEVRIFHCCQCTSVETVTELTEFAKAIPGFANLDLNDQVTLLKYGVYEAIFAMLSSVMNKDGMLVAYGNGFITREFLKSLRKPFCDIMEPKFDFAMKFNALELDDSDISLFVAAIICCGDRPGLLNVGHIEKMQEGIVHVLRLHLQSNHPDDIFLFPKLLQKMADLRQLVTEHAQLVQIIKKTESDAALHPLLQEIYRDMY
Assay: Test for transcriptional activity of PPARα (GAL4 chimeric transcription factor reporter assay in CHO cells)
Type: cell-based
Conditions: CHO cells transfected with GAL4-hPPARα LBD and pG5luc reporter; 24 hours; luciferase activity
MEASURE_NAME: EC50 (µM)

{"COMPOUND": "C[C@H]1CN(c2nc3ccc(Cl)cc3s2)CCN1CCOc1cc(Cl)cc(CC(=O)O)c1 [Example 679]", "VALUE_UNITS": "µM", "EC50": 0.96}

(a) O=C(O)Cc1ccc(CN2CCCN(c3nc4ccc(Cl)cc4s3)CC2)s1 [Example 503]
(b) O=C(O)Cc1cccc(OCCN(C2CCCCC2)C2CCN(c3nc4ccc(Cl)cc4s3)C2)c1 (stereo not shown) [Example 630]
# input Lab log: flag the item ( a or b ) with the smaller EC50 figure. Returns: label corresponding to the selected item.
# output a
